- subject_of_test: Chymotrypsinogen A (Bos taurus)
- assay_protocol: Binding affinity was evaluated on serine protease Chymotrypsinogen
- Assay type: single protein
Friendly reminder: Ki below 70 µM is Y, at or above is N.

Example cases with answers are listed next.
| smiles_repr | subject_of_test | discrete_label |
| --- | --- | --- |
| N[C@@H](C(=O)N1CCC[C@H]1C(=O)NCc1cc(Cl)ccc1OCC(=O)NC1CC1)C1CCCCC1 | Chymotrypsinogen A (Bos taurus) | Y |
| N[C@@H](C(=O)N1CCC[C@H]1C(=O)NCc1cc(Cl)ccc1Cl)C1CCCCC1 | Chymotrypsinogen A (Bos taurus) | Y |
| CCN(CC)C(=O)CN[C@@H](C(=O)N1CCC[C@H]1C(=O)NCc1cc(Cl)ccc1Cl)C1CCCCC1 | Chymotrypsinogen A (Bos taurus) | N |

*Q* Dear colleague, could you confirm whether Ki of NC(=O)COc1ccc(Cl)cc1CNC(=O)[C@@H]1CCCN1C(=O)[C@H](N)C1CCCCC1 falls below 70 µM? Thanks.
*A* N

----------
- assay_protocol: Oral bioavailability in rat when dosed in a suspension of 1% methocel
- Format: ADME, organism-based
- condition_details: in vivo
metric: bioavailability

Examples with their reported bioavailability follow.
| smiles_repr | bioavailability |
| --- | --- |
| CCNC(=O)COc1ccc(Cl)cc1CNC(=O)[C@@H]1CCCN1C(=O)[C@H](N)C1CCCCC1 | 10% |
| N[C@@H](C(=O)N1CCC[C@H]1C(=O)NCc1cc(Cl)ccc1Cl)C1CCCCC1 | 23% |

Here is another molecule to look at.
*Q* Look up and report measured bioavailability for this entry: N[C@@H](C(=O)N1CCC[C@H]1C(=O)NCc1cc(Cl)ccc1OCC(=O)NC1CC1)C1CCCCC1
*A* 20%

----------
- subject_of_test: Serine protease 1 (Homo sapiens, UniProt P07477)
- Sequence (P07477 whole entry): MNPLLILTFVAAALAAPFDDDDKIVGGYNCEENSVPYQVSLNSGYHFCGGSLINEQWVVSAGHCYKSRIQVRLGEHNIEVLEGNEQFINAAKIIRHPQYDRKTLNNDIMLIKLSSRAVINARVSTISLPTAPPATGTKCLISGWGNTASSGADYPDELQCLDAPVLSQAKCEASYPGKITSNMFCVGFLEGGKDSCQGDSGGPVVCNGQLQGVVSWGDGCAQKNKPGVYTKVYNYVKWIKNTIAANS
- assay_protocol: Selectivity was evaluated as the binding affinity between thrombin versus trypsin.
metric: Ki (µM)
Give your result in µM as a bare value.

*Q* Look up and report measured Ki for this entry: NC(C(=O)N1CCC[C@H]1C(=O)NCc1cc(Cl)ccc1Cl)C(c1ccccc1)c1ccccc1 (stereo partly specified)
*A* 7

----------
- assay_protocol: Partition coefficient (logP)
- Type: physicochemical
- condition_details: octanol/water
metric: logP
In your answer, state the number alone without any accompanying words.

| smiles_repr | logP |
| --- | --- |
| NC(=O)COc1ccc(Cl)cc1CNC(=O)[C@@H]1CCCN1C(=O)[C@H](N)C1CCCCC1 | 1.96 |

*Q* Look up and report measured logP for this entry: N[C@@H](C(=O)N1CCC[C@H]1C(=O)NCc1cc(Cl)ccc1OCC(=O)NC1CC1)C1CCCCC1
*A* 2.04

*Q* Look up and report measured logP for this entry: CCN(CC)C(=O)CN[C@@H](C(=O)N1CCC[C@H]1C(=O)NCc1cc(Cl)ccc1Cl)C1CCCCC1
*A* 2.67

*Q* Look up and report measured logP for this entry: N[C@@H](C(=O)N1CCC[C@H]1C(=O)NCc1cc(Cl)ccc1Cl)C1CCCCC1
*A* 2.63

*Q* Look up and report measured logP for this entry: CCNC(=O)COc1ccc(Cl)cc1CNC(=O)[C@@H]1CCCN1C(=O)[C@H](N)C1CCCCC1
*A* 2.07

----------
- assay_protocol: Oral bioavailability in cynomolgus monkey (dosed in a suspension of 1% methocel)
- Type: ADME, organism-based, Macaca fascicularis
- condition_details: in vivo
Measured bioavailability values are reported for all entries that follow.
Give your result in % as a bare value.

| smiles_repr | bioavailability / % |
| --- | --- |
| N[C@@H](C(=O)N1CCC[C@H]1C(=O)NCc1cc(Cl)ccc1OCC(=O)NC1CC1)C1CCCCC1 | 34 |

Here is another compound to look at.
*Q* Look up and report measured bioavailability for this entry: CCNC(=O)COc1ccc(Cl)cc1CNC(=O)[C@@H]1CCCN1C(=O)[C@H](N)C1CCCCC1
*A* 63

----------
- assay_protocol: Oral bioavailability in rats when dosed in a suspension of 1% methocel
- Type: ADME, organism-based
- condition_details: rat, in vivo
metric: bioavailability (%)
Give your result in % as a bare value.

*Q* Look up and report measured bioavailability for this entry: CCN(CC)C(=O)CN[C@@H](C(=O)N1CCC[C@H]1C(=O)NCc1cc(Cl)ccc1Cl)C1CCCCC1
*A* 10

----------
- subject_of_test: Plasma kallikrein (Homo sapiens)
- Sequence (P03952 20-390 limits assumed): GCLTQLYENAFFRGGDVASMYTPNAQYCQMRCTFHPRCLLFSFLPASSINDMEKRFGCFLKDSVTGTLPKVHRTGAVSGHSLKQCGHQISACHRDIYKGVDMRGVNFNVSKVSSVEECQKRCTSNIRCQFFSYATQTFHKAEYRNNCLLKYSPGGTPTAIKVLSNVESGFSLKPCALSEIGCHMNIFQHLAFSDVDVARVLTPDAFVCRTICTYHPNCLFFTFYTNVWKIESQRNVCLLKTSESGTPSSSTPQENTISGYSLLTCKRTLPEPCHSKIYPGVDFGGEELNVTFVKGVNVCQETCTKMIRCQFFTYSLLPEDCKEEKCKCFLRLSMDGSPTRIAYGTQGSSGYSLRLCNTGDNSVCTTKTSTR
- Sequence (P03952 391-638 limits assumed): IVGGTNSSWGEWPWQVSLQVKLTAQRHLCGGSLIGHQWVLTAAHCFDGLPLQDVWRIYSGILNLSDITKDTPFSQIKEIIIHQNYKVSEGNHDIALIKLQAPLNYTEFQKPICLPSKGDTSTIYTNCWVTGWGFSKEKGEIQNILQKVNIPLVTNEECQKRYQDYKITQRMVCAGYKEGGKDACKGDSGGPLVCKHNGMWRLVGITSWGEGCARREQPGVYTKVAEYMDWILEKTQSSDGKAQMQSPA
- assay_protocol: Binding affinity was evaluated on serine protease plasma kallikrein.
metric: pKi
Just the number, please; pKi means minus log10 of the concentration in mol/L.

Examples with their reported pKi follow.
| smiles_repr | pKi |
| --- | --- |
| N[C@@H](C(=O)N1CCC[C@H]1C(=O)NCc1cc(Cl)ccc1OCC(=O)NC1CC1)C1CCCCC1 | 4.10 |
| NC(=O)COc1ccc(Cl)cc1CNC(=O)[C@@H]1CCCN1C(=O)[C@H](N)C1CCCCC1 | 3.09 |
| CCN(CC)C(=O)CN[C@@H](C(=O)N1CCC[C@H]1C(=O)NCc1cc(Cl)ccc1Cl)C1CCCCC1 | 3.40 |

*Q* Look up and report measured pKi for this entry: N[C@@H](C(=O)N1CCC[C@H]1C(=O)NCc1cc(Cl)ccc1Cl)C1CCCCC1
*A* 3.23

----------
Measured Free values are reported for all entries that follow.
- Species on record: Homo sapiens
- assay_protocol: % Free drug present in human plasma.
- Assay type: ADME, organism-based
Give your result in % as a bare value.

| smiles_repr | metric | value_measured |
| --- | --- | --- |
| N[C@@H](C(=O)N1CCC[C@H]1C(=O)NCc1cc(Cl)ccc1OCC(=O)NC1CC1)C1CCCCC1 | Free | 12 |
| NC(=O)COc1ccc(Cl)cc1CNC(=O)[C@@H]1CCCN1C(=O)[C@H](N)C1CCCCC1 | Free | 26 |
| N[C@@H](C(=O)N1CCC[C@H]1C(=O)NCc1cc(Cl)ccc1Cl)C1CCCCC1 | Free | 4 |

*Q* Look up and report measured Free for this entry: CCNC(=O)COc1ccc(Cl)cc1CNC(=O)[C@@H]1CCCN1C(=O)[C@H](N)C1CCCCC1
*A* 15

----------
- assay_protocol: The concentration in plasma
- Format: ADME, cell-free
metric: concentration (nM)
Give your result in nM as a bare value.

*Q* Look up and report measured concentration for this entry: CCNC(=O)COc1ccc(Cl)cc1CNC(=O)[C@@H]1CCCN1C(=O)[C@H](N)C1CCCCC1
*A* 794

----------
- Species on record: Homo sapiens
- assay_protocol: Concentration of compound in plasma required to double the activated partial thromboplastin time in human measured as 2(APTT) value
- Assay type: functional, cell-free
Measured Concentration values are reported for all entries that follow.
Could you give the number and then its unit, please?

| smiles_repr | metric | value_measured |
| --- | --- | --- |
| N[C@@H](C(=O)N1CCC[C@H]1C(=O)NCc1cc(Cl)ccc1Cl)C1CCCCC1 | Concentration | 0.95 µM |
| NC(=O)COc1ccc(Cl)cc1CNC(=O)[C@@H]1CCCN1C(=O)[C@H](N)C1CCCCC1 | Concentration | 0.25 µM |
| N[C@@H](C(=O)N1CCC[C@H]1C(=O)NCc1cc(Cl)ccc1OCC(=O)NC1CC1)C1CCCCC1 | Concentration | 0.35 µM |

Here is another compound to look at.
*Q* Look up and report measured Concentration for this entry: CCNC(=O)COc1ccc(Cl)cc1CNC(=O)[C@@H]1CCCN1C(=O)[C@H](N)C1CCCCC1
*A* 0.41 µM

----------
- subject_of_test: Prothrombin (Homo sapiens, UniProt P00734)
- assay_protocol: Binding affinity was evaluated on serine protease thrombin.
metric: pKi
Just the number, please; pKi means minus log10 of the concentration in mol/L.

| smiles_repr | pKi |
| --- | --- |
| NC(=O)COc1ccc(Cl)cc1CNC(=O)[C@@H]1CCCN1C(=O)[C@H](N)C1CCCCC1 | 9.30 |

*Q* Look up and report measured pKi for this entry: N[C@@H](C(=O)N1CCC[C@H]1C(=O)NCc1cc(Cl)ccc1Cl)C1CCCCC1
*A* 8.30

*Q* Look up and report measured pKi for this entry: CCOC(=O)COc1ccc(Cl)cc1CNC(=O)[C@@H]1CCCN1C(=O)[C@H](N)C1CCCCC1
*A* 9.35

*Q* Look up and report measured pKi for this entry: CCN(CC)C(=O)CN[C@@H](C(=O)N1CCC[C@H]1C(=O)NCc1cc(Cl)ccc1Cl)C1CCCCC1
*A* 9.51

----------
- Organism: Rattus norvegicus
- assay_protocol: The final concentration in plasma of rat carotid artery FeCl3 induced thrombosis model
- Type: ADME, organism-based
Measured concentration values are reported for all entries that follow.
Give your result in nM as a bare value.

*Q* Look up and report measured concentration for this entry: NC(=O)COc1ccc(Cl)cc1CNC(=O)[C@@H]1CCCN1C(=O)[C@H](N)C1CCCCC1
*A* 726

*Q* Look up and report measured concentration for this entry: N[C@@H](C(=O)N1CCC[C@H]1C(=O)NCc1cc(Cl)ccc1Cl)C1CCCCC1
*A* 329

*Q* Look up and report measured concentration for this entry: CCN(CC)C(=O)CN[C@@H](C(=O)N1CCC[C@H]1C(=O)NCc1cc(Cl)ccc1Cl)C1CCCCC1
*A* 245
